For each of the compounds below, state its inhibition at 20 µM.
- tgt: KRas G12D mutant (Homo sapiens, UniProt P01116, G12D)
- Construct: fused on or other part: His tag, used for capture on nickel-coated plates
- testProtocol: Ras GTP binding domain inhibition assay (Cy3-GTP/Cy5-GTP competition)
- conditionLabel: 20 μM; with SOS (Table 7A); read-out: KRas G12D mutant + SOS: % inh.

> print(dat)
                                   compound     measurementlabel     result
1  CO[C@H]1C[C@@H](Nc2nc(-c3ncc[nH]3)nc3sc(-c4ccn(C)n4)c(-c4ccccc4)c23)C1 [drawing 910]  inhibition at 20 µM  26 to 50%
2  COc1c(F)cccc1-c1sc2nc(-c3nccn3C)nc(NC3CCC(OC)C3)c2c1-c1ccccc1 (centres unmarked) [drawing 886]  inhibition at 20 µM   1 to 25%
3  Cn1ccc(-c2sc3nc(-c4nccn4C)nc(O)c3c2-c2ccccc2)n1 [drawing 904]  inhibition at 20 µM  26 to 50%
4  CO[C@H]1CC[C@@H](Nc2nc(-c3nccn3C)nc3sc(-c4ccn(C)n4)c(C)c23)C1 [drawing 915]  inhibition at 20 µM  51 to 75%
5  COc1cccc(Cn2ccnc2-c2nc(O)c3scc(-c4ccc(OCC(C)C)nc4)c3n2)c1 [drawing 900]  inhibition at 20 µM  51 to 75%

Batch of 3 compounds: report inhibition at 20 µM for each.
1. COC1CCN(C(=O)c2sc3nc(-c4nccn4C)nc(N[C@H]4C[C@@H](OC)C4)c3c2-c2ccccc2)C1 (some centres unmarked) [drawing 923]
2. COC1CCC(Nc2nc(-c3nccn3C)nc3sc(-c4cccc5[nH]ncc45)c(C)c23)C1 (centres unmarked) [drawing 895]
3. COc1c(O)nc(-c2ccccn2)nc1Oc1ccc(C(=O)N(C)C)cc1 [drawing 879]

Data returned:
51 to 75%
51 to 75%
26 to 50%

* * *

- tgt: KRas G12D mutant (Homo sapiens, UniProt P01116, G12D)
- Construct: fused on or other part: His tag, used for capture on nickel-coated plates
- testProtocol: Ras GTP binding domain inhibition assay (Cy3-GTP/Cy5-GTP competition)
- conditionLabel: 20 μM; without SOS; read-out: KRas G12D mutant: % inh.
- Text: The following method was developed as specific assay for the following proteins: KRas wild type, KRas Q61H mutant, KRas G12C mutant, KRas G12D mutant, HRas wild type, Rac-1, and Rho-A. […] The small GTPases proteins: KRas wild type. KRas Q61H mutant, KRas G12C mutant, KRas G12D mutants, HRas wild type, Rac-1, and Rho-A were expressed as His-tagged proteins. In addition, the Guanosine nucleotide Exchange Factor (GEF) Sos protein (residues 556-1049) was expressed as a His-tagged protein. […]
For each of the molecules below, state its inhibition at 20 µM.

Answered cases to consult:
> print(dat)
                                   molecule     measurementlabel      result
1  Oc1nc(-c2nccn2Cc2ccccn2)nc2c(-c3ccccn3)csc12 [drawing 851]  inhibition at 20 µM  76 to 100%
2  COC1CCN(c2nc(-c3nccn3C)nn3cc(-c4ccccc4)c(-c4ccccc4)c23)C1 (centres unmarked) [drawing 796]  inhibition at 20 µM   26 to 50%
3  Oc1nc(-c2cn3cccnc3n2)nc2c(-c3ccccn3)csc12 [drawing 848]  inhibition at 20 µM    1 to 25%
4  COc1cc(-c2sc3nc(-c4nccn4C)nc(N4CCC(OC)C4)c3c2-c2ccccc2)ccn1.Cl (centres unmarked)  inhibition at 20 µM   51 to 75%

Now take the following molecule into account.
Data request: Can you look up the measured inhibition at 20 µM of COc1nc(-c2ccccn2)nc(Nc2cnn(C)c2)c1OC [drawing 794] for me?
Data returned: 0%
